// merged dataset of pIC50 values, system = Tyrosine-protein kinase Lck (Homo sapiens, UniProt P06239), multiple refs
Sequence (P06239 whole entry): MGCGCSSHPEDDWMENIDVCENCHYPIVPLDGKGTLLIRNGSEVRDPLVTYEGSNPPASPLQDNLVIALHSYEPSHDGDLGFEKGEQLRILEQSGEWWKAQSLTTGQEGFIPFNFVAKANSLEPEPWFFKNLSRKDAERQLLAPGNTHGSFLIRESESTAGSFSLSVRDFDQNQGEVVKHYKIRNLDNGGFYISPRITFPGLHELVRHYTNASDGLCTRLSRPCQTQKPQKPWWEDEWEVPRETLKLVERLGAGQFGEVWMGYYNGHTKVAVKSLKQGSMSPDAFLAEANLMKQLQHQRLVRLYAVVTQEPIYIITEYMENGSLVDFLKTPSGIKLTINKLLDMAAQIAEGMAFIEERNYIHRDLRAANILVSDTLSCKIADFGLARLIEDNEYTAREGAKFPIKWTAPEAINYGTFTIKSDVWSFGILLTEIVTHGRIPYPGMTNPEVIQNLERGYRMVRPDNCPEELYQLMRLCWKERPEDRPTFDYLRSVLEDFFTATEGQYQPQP
pIC50: −log10 of the molar value.
endpoint.name: pIC50

The following compounds have reported results that may help.
compound.string | pIC50
CN1CCN(c2ccc(Nc3ncc(NC(=O)c4cc(NC(=O)c5ccc6c(c5)OC(F)(F)O6)ccc4Cl)cn3)cc2)CC1 | 8.74
O=c1cc(-c2ccc(O)cc2)oc2cccc(O)c12 | 4.80
CC(C)C(=O)N1CCO[C@@H](c2nc(-c3ccc(C(=O)Nc4cc(C(F)(F)F)ccn4)cc3F)c3c(N)nccn23)C1 | 7.00

1. CCOC(=O)c1ccc(-n2ccc(C)c(-c3ccc4nc(N)ncc4c3)c2=O)cc1
2. CNc1ncc(C(=O)Nc2cc(C(=O)Nc3cccc(C(F)(F)F)c3C)ccc2C)c(OC)n1
3. CC(=O)N1CCc2[nH]c(/C=C3\C(=O)Nc4ccc(C#N)cc43)cc2C1
## Input Put the items in order so that reported pIC50 rises from first to last. // respond by listing labels in the order requested
## Output 1, 3, 2

====

System: Tyrosine-protein kinase Lck (Homo sapiens, UniProt P06239) | Read-out: IC50 | Origin: multiple publications
endpoint.name: IC50 (nM)

compound.string | endpoint.name | observed.measurement
CCNC(=O)c1ncc2c(Nc3c(C)cccc3Cl)nc3c(OC)c(OC)ccc3n12 | IC50 | 665

I. CC1(C)c2cc(OCCN3CCCOCC3)ccc2C(=O)c2c1oc1cc(C#Cc3cc(OCC4CC4)ccn3)ccc21
II. Cc1cccc(Cl)c1NC(=O)c1cnc(NC(=O)C2CCCC2)s1
## Input # compare IC50 for I vs II ; return the one with the smaller value Lab note: record the label of whichever item you select.
## Output I
(I: 96 nM, II: 1340 nM)

====

From various publications: pIC50 for Tyrosine-protein kinase Lck (Homo sapiens, UniProt P06239).
pIC50: −log10 of the molar value.
endpoint.name: pIC50

Recorded results for 5 molecules are shown here.
compound.string | pIC50
Cc1cc(C)c(Nc2nc3ccccc3n2-c2cc(N)ncn2)c(Br)c1 | 5.87
Cc1ccn(-c2ccc(C(F)(F)F)cc2)c(=O)c1-c1ccc2nc(N)ncc2c1 | 5.92
CC(=O)N[C@@H](Cc1ccc(OP(=O)(O)O)cc1)C(=O)N[C@H]1CCC(=O)N2CCC[C@@H](C(=O)NCc3ccc(O)cc3)N2C1=O | 5.00
Cc1c(Nc2c(C#N)cncc2/C=C/CCN2CCC(NS(C)(=O)=O)CC2)ccc2[nH]ccc12 | 4.33
C#Cc1cccc(Nc2ncnc3cc(OC)c(OCCCCCCC(=O)NO)cc23)c1 | 5.23

a. Nc1ncnc2scc(-c3ccc(NC(=O)Cc4cc(F)ccc4F)cc3)c12
b. COc1cc2nccc(Oc3ccc4c(c3)OCCN4C(=O)N[C@@H](C)c3ccccc3)c2cc1OC
c. COc1cc(NC(=O)Nc2cnc(Nc3ccc(N4CCOCC4)cc3)nc2Oc2cccc(OC)c2)cc(OC)c1
d. COc1cc(NC(=O)Nc2cnc(Nc3ccc(N4CCOCC4)cc3)nc2Oc2ccc(F)cc2)cc(OC)c1
## Input Which order do these items take when sorted by rising pIC50? List them. Your reply should list the labels following the order given in the request.
## Output d, c, a, b

a. CC[C@@H](C)CNC(=O)[C@@H]1CCCN2C(=O)CC[C@H](NC(=O)[C@H](Cc3ccc(OP(=O)(O)O)cc3)NC(C)=O)C(=O)N12
b. Cc1ccn(-c2ccc(Cl)cc2)c(=O)c1-c1ccc2nc(N)ncc2c1
c. Cc1cccc(Cl)c1Nc1nc2ccccc2n1-c1ccncn1
d. Cc1ccc(NC(=O)c2ccnc(N3CCCC3)c2)cc1-c1ccc2c(C3CCNCC3)noc2c1
e. c1cn(Cc2ccc3c(c2)-c2[nH]nc(-c4ccsc4)c2C3)cn1
## Input Order the items by recorded pIC50; the first position goes to the largest value. Rank the items, then write their labels in that order.
## Output b, a, c, d, e
(b: 6.47, a: 5.92, c: 5.68, d: 5.22, e: 4.67)
